Collected fraction ligated values appear next to each entry.
B1: F1*; the commonest letter at each place (parent)
chain: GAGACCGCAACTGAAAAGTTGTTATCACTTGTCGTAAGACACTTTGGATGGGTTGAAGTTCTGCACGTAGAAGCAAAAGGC

Variants of: B1
Test: fraction ligated after 30 min (ligated reads / total reads); higher = more ligase activity
Conditions: with F1*sub RNA substrate (template-directed ligation), 42 °C
outcome-measure: fraction ligated

[[record]]
mutation_name = "C26G A57C"
outcome_measure = "fraction ligated"
reported_measurement = 0.33

[[record]]
mutation_name = "A27G"
outcome_measure = "fraction ligated"
reported_measurement = 0.852

[[record]]
mutation_name = "G46C A57C"
outcome_measure = "fraction ligated"
reported_measurement = 0.778

[[record]]
mutation_name = "T23A G31A"
outcome_measure = "fraction ligated"
reported_measurement = 0.816

[[record]]
mutation_name = "A27T T43A"
outcome_measure = "fraction ligated"
reported_measurement = 0.799

[[record]]
mutation_name = "A24C C28G"
outcome_measure = "fraction ligated"
reported_measurement = 0.742

[[record]]
mutation_name = "G34C G47A"
outcome_measure = "fraction ligated"
reported_measurement = 0.774

[[record]]
mutation_name = "G46T G50C"
outcome_measure = "fraction ligated"
reported_measurement = 0.0286

[[record]]
mutation_name = "C28G C33T"
outcome_measure = "fraction ligated"
reported_measurement = 0.786

[[record]]
mutation_name = "A39G T49A"
outcome_measure = "fraction ligated"
reported_measurement = 0.805

[[record]]
mutation_name = "T44G T49A"
outcome_measure = "fraction ligated"
reported_measurement = 0.584

